FYI, the data here is from patent US20250179057A1.

# EXPERIMENTAL_SYSTEM: UniProt:P33261
# Sequence (P33261 whole entry): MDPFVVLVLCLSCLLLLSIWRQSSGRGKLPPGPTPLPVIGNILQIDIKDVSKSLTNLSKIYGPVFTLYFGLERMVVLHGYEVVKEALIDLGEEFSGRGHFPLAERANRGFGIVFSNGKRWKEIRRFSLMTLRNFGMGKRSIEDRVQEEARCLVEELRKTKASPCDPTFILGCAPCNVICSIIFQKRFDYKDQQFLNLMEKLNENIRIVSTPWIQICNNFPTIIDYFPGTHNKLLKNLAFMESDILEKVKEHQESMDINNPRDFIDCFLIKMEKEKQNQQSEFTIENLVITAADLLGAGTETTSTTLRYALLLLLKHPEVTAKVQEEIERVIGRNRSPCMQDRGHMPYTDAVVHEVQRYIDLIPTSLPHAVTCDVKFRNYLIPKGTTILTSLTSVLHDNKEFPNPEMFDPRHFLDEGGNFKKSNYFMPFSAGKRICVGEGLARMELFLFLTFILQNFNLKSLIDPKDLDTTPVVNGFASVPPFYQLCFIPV
# EXPERIMENTAL_PROTOCOL: in vitro
# ASSAY_CONTEXT: pooled liver microsomes, pH 7.4, probe mephenytoin
QUANTITY_KIND: inhibition at 30 min, 10 µM

inhibition at 30 min, 10 µM measured on COc1ccc2[nH]c([S+]([O-])Cc3ncc(C)c(OC)c3C)nc2c1 (stereo not shown) [Omeprazole, reference compound] = 60.7%

----------
# EXPERIMENTAL_PROTOCOL: PAMPA (pH 7.4)
# Format: in vitro ADME
# ASSAY_CONTEXT: PAMPA; pH = 7.4 (Table 14)
Counter-ions that a name gives are not always drawn.
Threshold check on Papp at 4 h, 50 μM: at or above 50 ×10⁻⁶ cm/s gives 1, strictly below gives -1.

INPUT: Answer whether Papp at 4 h, 50 μM of "CNS(=O)(=O)Nc1cccc(Cc2c(CN3CCNCC3)c3cc(F)c(OC(=O)N(C)C)cc3oc2=O)c1Cl" is greater than or equal to 50 ×10⁻⁶ cm/s.
OUTPUT: -1

INPUT: Answer whether Papp at 4 h, 50 μM of CNS(=O)(=O)Nc1cccc(Cc2c(CN3CCNCC3)c3ccc(OC(=O)N(C)C)cc3oc2=O)c1Cl [Compound 246, hydrochloride] is greater than or equal to 50 ×10⁻⁶ cm/s.
OUTPUT: -1

INPUT: Answer whether Papp at 4 h, 50 μM of "CCS(=O)(=O)Nc1cccc(Cc2c(CN3CCNCC3)c3cc(F)c(OC(=O)N(C)C)cc3oc2=O)c1Cl" is greater than or equal to 50 ×10⁻⁶ cm/s.
OUTPUT: -1

INPUT: Answer whether Papp at 4 h, 50 μM of "CCN(C)Cc1c(Cc2cccc(NS(=O)(=O)NC)c2Cl)c(=O)oc2cc(OC(=O)N(C)C)ccc12" is greater than or equal to 50 ×10⁻⁶ cm/s.
OUTPUT: 1

INPUT: Answer whether Papp at 4 h, 50 μM of "CN(C)Cc1c(Cc2cccc(NS(=O)(=O)CC(F)(F)F)c2F)c(=O)oc2cc(OC(=O)N(C)C)c(F)cc12" is greater than or equal to 50 ×10⁻⁶ cm/s.
OUTPUT: 1

INPUT: Answer whether Papp at 4 h, 50 μM of "CNS(=O)(=O)Nc1cccc(Cc2c(CN(C)C)c3c(F)cc(OC(=O)N(C)C)cc3oc2=O)c1F" is greater than or equal to 50 ×10⁻⁶ cm/s.
OUTPUT: -1

INPUT: Answer whether Papp at 4 h, 50 μM of "CNS(=O)(=O)Nc1cccc(Cc2c(CN(C)CC(F)F)c3ccc(OC(=O)N(C)C)cc3oc2=O)c1F" is greater than or equal to 50 ×10⁻⁶ cm/s.
OUTPUT: 1

INPUT: Answer whether Papp at 4 h, 50 μM of "CCS(=O)(=O)Nc1cccc(Cc2c(CN(C)CC(F)F)c3ccc(OC(=O)N(C)C)cc3oc2=O)c1F" is greater than or equal to 50 ×10⁻⁶ cm/s.
OUTPUT: -1

INPUT: Answer whether Papp at 4 h, 50 μM of "CN(C)C(=O)Oc1cc2oc(=O)c(Cc3cccc(NS(=O)(=O)CC(F)(F)F)c3F)c(CN3CCNCC3)c2cc1Cl" is greater than or equal to 50 ×10⁻⁶ cm/s.
OUTPUT: -1

INPUT: Answer whether Papp at 4 h, 50 μM of "CN(C)C(=O)Oc1cc2oc(=O)c(Cc3cccc(NS(=O)(=O)CC(F)(F)F)c3F)c(CN3CCNCC3)c2cc1F" is greater than or equal to 50 ×10⁻⁶ cm/s.
OUTPUT: -1

INPUT: Answer whether Papp at 4 h, 50 μM of "CCS(=O)(=O)Nc1cccc(Cc2c(CN(C)C)c3ccc(OC(=O)N(C)C)cc3oc2=O)c1Cl" is greater than or equal to 50 ×10⁻⁶ cm/s.
OUTPUT: 1

INPUT: Answer whether Papp at 4 h, 50 μM of "CCS(=O)(=O)Nc1cccc(Cc2c(CN(C)CCF)c3ccc(OC(=O)N(C)C)cc3oc2=O)c1F" is greater than or equal to 50 ×10⁻⁶ cm/s.
OUTPUT: 1

INPUT: Answer whether Papp at 4 h, 50 μM of "CCS(=O)(=O)Nc1cccc(Cc2c(CN3CCNCC3)c3ccc(OC(=O)N(C)C)cc3oc2=O)c1Cl" is greater than or equal to 50 ×10⁻⁶ cm/s.
OUTPUT: -1
